system_tested: HIF-2α (Homo sapiens, UniProt Q99814)
Sequence (Q99814 whole entry): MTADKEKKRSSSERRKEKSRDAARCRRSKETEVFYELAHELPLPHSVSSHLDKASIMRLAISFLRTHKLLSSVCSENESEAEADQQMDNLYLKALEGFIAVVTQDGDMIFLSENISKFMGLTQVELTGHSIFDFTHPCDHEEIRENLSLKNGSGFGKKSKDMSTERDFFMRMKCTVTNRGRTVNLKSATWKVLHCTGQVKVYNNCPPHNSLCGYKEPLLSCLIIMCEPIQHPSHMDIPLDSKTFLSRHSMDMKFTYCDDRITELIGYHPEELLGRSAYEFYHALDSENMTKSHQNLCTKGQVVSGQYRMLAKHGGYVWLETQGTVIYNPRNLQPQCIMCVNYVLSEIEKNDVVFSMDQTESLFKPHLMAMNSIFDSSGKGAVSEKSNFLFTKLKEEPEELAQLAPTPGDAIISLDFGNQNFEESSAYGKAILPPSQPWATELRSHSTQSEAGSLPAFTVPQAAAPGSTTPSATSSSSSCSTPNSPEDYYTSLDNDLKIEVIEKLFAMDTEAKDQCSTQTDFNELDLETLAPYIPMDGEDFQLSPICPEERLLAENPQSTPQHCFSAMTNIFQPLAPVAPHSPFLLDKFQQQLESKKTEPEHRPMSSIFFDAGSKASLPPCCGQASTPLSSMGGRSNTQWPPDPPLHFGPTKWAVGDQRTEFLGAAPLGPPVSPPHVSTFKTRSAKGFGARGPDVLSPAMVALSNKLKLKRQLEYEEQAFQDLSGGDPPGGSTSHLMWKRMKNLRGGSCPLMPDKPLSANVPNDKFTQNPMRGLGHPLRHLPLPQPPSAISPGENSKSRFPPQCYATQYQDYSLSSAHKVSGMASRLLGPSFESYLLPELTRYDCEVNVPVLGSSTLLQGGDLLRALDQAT
assay_text: HIF-2α Luciferase Reporter Assay (serum free) in HIF-Luc-786-0 cells
Format: cell-based
experimental_setup: Opti-MEM, 786-0 reporter cells, 20 hours incubation
pIC50: −log10 of the molar value.
assay_metric: pIC50

Guide cases for pIC50, answers given:
molecule O[C@H]1c2c(C(F)(F)F)nn([C@H]3CCO[C@@H](C(F)(F)F)C3)c2CC1(F)F (single isomer, unassigned) [94/95 DIAST-1] , pIC50 observed: > 7.00

// O[C@H]1c2c(C(F)(F)F)nn(C3CCC(F)(F)C3)c2CC1(F)F (mixture of isomers) [Example 54] : pIC50 value = 6.00 to 7.00

get_value(item= O[C@H]1c2c(C(F)(F)F)nn(C3CC4(C3)CC(F)(F)C4)c2C[C@H]1F [Example 67] , readout=pIC50) returns 6.00 to 7.00

Item: O[C@H]1c2c(C(F)(F)F)nn(CCCC(F)F)c2CCC1(F)F [Example 31] | pIC50: 6.00 to 7.00

Looking up CC(CCn1nc(S(C)(=O)=O)c2c1CCC(F)(F)[C@H]2O)C(F)(F)F (stereo partly shown) [Example 50] , I found its pIC50 recorded as < 6.00

More entries:
Form field pIC50, entry CCCCn1nc(C(F)(F)F)c2c1CCC(F)(F)[C@H]2O [Example 39] : 6.00 to 7.00

For record O[C@H]1c2c(C(F)(F)F)nn(CCSC(F)F)c2CCC1(F)F [Example 18] the listed pIC50 is 6.00 to 7.00

Form: molecule = O[C@H]1c2c(C(F)(F)F)nn(C3CC4(C3)CC(F)(F)C4)c2[C@H](F)[C@H]1F (single isomer, unassigned) [Example 135] ; pIC50 = > 7.00

Form: molecule = O[C@H]1c2c(C(F)(F)F)nn([C@@H]3C[C@@H]4[C@H](C3)C4(F)F)c2CC1(F)F (single isomer, unassigned) [125/126 DIAST-2] ; pIC50 = 6.00 to 7.00

pIC50 for CC(CCn1nc(C(F)(F)F)c2c1CCC(F)(F)[C@H]2O)OC(F)(F)F (stereo partly shown) [Example 14] is > 7.00

---

system_tested: UniProtKB Q99814
assay_text: HIF-2α Luciferase Reporter Assay (serum), HRE-luciferase 786-0 cells in 100% human serum
Assay type: cell-based
experimental_setup: 100% human serum, 786-0 reporter cells, overnight incubation; read-out: Serum Potency
Description: Generation of HIF-2α Luciferase 786-0 Cell Line: Stable cell lines were generated by transducing 786-0 cells (ATCC, CRL-1932) with Cignal Lenti HIF Luc Reporter lentivirus (CLS-007L, Qiagen) according to the manufacturer's guidelines. In brief, 0.3×10^6 786-0 cells were transduced with lentivirus at a multiplicity of infection (MOI) of 25 for 24 hours. […]
# key: entry, value: IC50

The cases that follow already have their IC50 on record.
Recorded result, O[C@H]1c2c(C(F)(F)F)nn([C@H]3CC[C@H](OC(F)F)C3)c2CC1(F)F (racemic) [Example 110] , IC50: > 1000 nM

// field: IC50; key: CCC(CCn1nc(C(F)(F)F)c2c1CCC(F)(F)[C@H]2O)C(F)(F)F (some centres unmarked) [Example 43] ; value = > 1000 nM

Given item C[C@H](C#N)CCn1nc(C(F)(F)F)c2c1CCC(F)(F)[C@H]2O [Example 100] , the value recorded as its IC50 is > 1000 nM

New cases:
Data point: O[C@H]1c2c(C(F)(F)F)nn(CC3CCC(F)(F)CC3)c2CC1(F)F [Example 113] ; IC50 = > 1000 nM

Entry O=S1(=O)CCCC(n2nc(C(F)(F)F)c3c2CC(F)(F)[C@H]3O)C1 (some centres unmarked) [Example 86] — recorded IC50 = 100 to 1000 nM

Reported IC50 for O[C@H]1c2c(C(F)(F)F)nn(CCSC(F)(F)F)c2CCC1(F)F [Example 7] was 100 to 1000 nM

Per the record, C[C@@H](C#N)CCn1nc(C(F)(F)F)c2c1CCC(F)(F)[C@H]2O [Example 99] has IC50 of 100 to 1000 nM

Measured IC50 of O[C@H]1c2c(C(F)(F)F)nn(CCC3CC(F)(F)C3)c2CCC1(F)F [Example 44] : > 1000 nM

---

The entries below come with measured Serum Shift (approximate) values attached.
system_tested: UniProtKB Q99814
assay_text: HIF-2α Luciferase Reporter Assay (serum), HRE-luciferase 786-0 cells in 100% human serum
Format: cell-based
experimental_setup: ratio of IC50 in 100% serum to IC50 in serum free conditions; approximate
When you answer, write just the number.

A selection of reference data follows.
Sure, the documented Serum Shift (approximate) for O[C@H]1c2c(C(F)(F)F)nn([C@@H]3C[C@H](F)C[C@H](F)C3)c2CC1(F)F is 7

Data point: O[C@H]1c2c(C(F)(F)F)nn([C@@H]3C[C@@H](F)[C@@H](F)[C@@H](F)C3)c2CC1(F)F ; Serum Shift (approximate) = 0

Serum Shift (approximate) reported for this compound O[C@H]1c2c(C(F)(F)F)nn(C3CCO[C@H](C(F)(F)F)C3)c2CC1(F)F (single isomer, unassigned) [94/95 DIAST-2] : 23

Moving on to another compound below.
The recorded Serum Shift (approximate) for O[C@H]1c2c(C(F)(F)F)nn(-c3ccc(Cl)c(F)c3)c2CC1(F)F is 73

---

system_tested: HIF-2α (Homo sapiens)
assay_text: HIF-2α Luciferase Reporter Assay (serum), HRE-luciferase 786-0 cells in 100% human serum
Format: cell-based
experimental_setup: ratio of IC50 in 100% serum to IC50 in serum free conditions; approximate
Recorded Serum Shift (approximate), one value per entry.
# print the numeric value only

Value of Serum Shift (approximate) reported for the compound O[C@H]1c2c(C(F)(F)F)nn(CCc3cccc(F)c3)c2CC1(F)F [Example 79] is 13

The recorded Serum Shift (approximate) for CC(CCn1nc(C(F)(F)F)c2c1CCC(F)(F)[C@H]2O)OC(F)(F)F (some centres unmarked) [Example 14] is 6

Serum Shift (approximate) for CC(CCn1nc(C(F)(F)F)c2c1CCC(F)(F)[C@H]2O)C(F)(F)F (some centres unmarked) [Example 38] is 8

Form field Serum Shift (approximate), entry CC(CCn1nc(C#N)c2c1CCC(F)(F)[C@H]2O)C(F)(F)F (some centres unmarked) [Example 49] : 7

***
The recorded Serum Shift (approximate) for O[C@H]1c2c(C(F)(F)F)nn(CCc3cnoc3)c2CC1(F)F [Example 75] is 5

---

system_tested: HIF-2α (Homo sapiens, UniProt Q99814)
assay_text: HIF-2α Luciferase Reporter Assay (serum free) in HIF-Luc-786-0 cells
Format: cell-based
experimental_setup: Opti-MEM, 786-0 reporter cells, 20 hours incubation
Description: Generation of HIF-2α Luciferase 786-0 Cell Line: Stable cell lines were generated by transducing 786-0 cells (ATCC, CRL-1932) with Cignal Lenti HIF Luc Reporter lentivirus (CLS-007L, Qiagen) according to the manufacturer's guidelines. In brief, 0.3×10^6 786-0 cells were transduced with lentivirus at a multiplicity of infection (MOI) of 25 for 24 hours. […]
assay_metric: IC50

# count of solved cases: 2
Just so you know, measured IC50 for O[C@H]1c2c(C(F)(F)F)nn(CCCC(F)(F)F)c2[C@@H](F)C1(F)F (single isomer, unassigned) [Example 123] came out at 100 to 1000 nM

// O[C@H]1c2c(C(F)(F)F)nn(CC3CCC(F)(F)CC3)c2CC1(F)F [Example 113] : IC50 value = < 100 nM

***
Input O[C@H]1c2c(C(F)(F)F)nn(CC3CC(F)(F)C3)c2CCC1(F)F [Example 2] . Output IC50: 100 to 1000 nM

Value of measured IC50 for the entry O[C@H]1c2c(C(F)(F)F)nn(CC3CC3(F)F)c2CCC1(F)F (single isomer, unassigned) [23/24 DIAST-1] : 100 to 1000 nM

get_value(item= O[C@H]1c2c(C(F)(F)F)nn([C@@H]3CCC[C@@H](C(F)(F)F)C3)c2CC1(F)F [Example 80] , readout=IC50) returns 100 to 1000 nM

// field: IC50; key: CO[C@H]1c2c(C(F)(F)F)nn(CCCC(F)(F)F)c2CCC1(F)F [Example 47] ; value = > 1000 nM

Notebook: O[C@H]1c2c(C(F)(F)F)nn([C@@H]3C[C@@H](F)[C@@H](F)[C@@H](F)C3)c2[C@H](F)C1(F)F (single isomer, unassigned) [146/147 DIAST-1] , IC50 read as < 100 nM
